In this section we review reported protein stability index values for a set of variants.
B1: LOC100129726 (parent)
chain: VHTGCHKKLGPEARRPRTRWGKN

Variants of: B1
Assay: protein stability index of a GFP-peptide fusion (GPS, HEK-293T) (PSI 1-6); higher = more stable;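 note: lentivirally expressed fusions sorted by FACS into six bins by GFP to DsRed ratio, PSI derived from sequencing read proportions per bin multiplied by bin number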
Details: c terminus: native
Reply with just the number.

mutant_id	protein stability index
T18Q	2.47
T18I	1.4
R17Q	1.01

Data request, read-out protein stability index, for G10P 3.1

Data request, read-out protein stability index, for R15E 2.63

Data request, read-out protein stability index, for W20R 4.73
